molecular target: 5-HT2A receptor (Homo sapiens); construct: expressed in transfected cells; host or cells: NIH3T3 cells, pSI expression vector; assay: R-SAT functional receptor assay; type: cell-based; details: pIC50, Table 3
Structures can show the parent of a compound that is named as a salt.
In this section we review reported IC50 values for a set of compounds.
Report the figure in nM without appending any unit label.

COc1ccc(CC(=O)N(Cc2ccc(C)cc2)C2CCN(Cc3csc(C)n3)CC2)cc1 [Example 63ELH1A] : 5.01
COc1ccc(CC(=O)N(Cc2ccc(C)cc2)C2CCN(CCCn3c(=O)[nH]c4ccccc43)CC2)cc1 [Example 50ELH89] : 0.2

Consider now this further compound.
// lookup IC50 for COc1ccc(CC(=O)N(Cc2ccc(C)cc2)C2CCN(Cc3ccccc3)CC2)cc1 [Example 26HCH17, hydrochloride] 5.01

====

Target: 5-HT2A receptor (Homo sapiens, UniProt P28223)
Construct: expressed in transfected cells; host or cells: NIH3T3 cells, pSI expression vector
Sequence (P28223 whole entry): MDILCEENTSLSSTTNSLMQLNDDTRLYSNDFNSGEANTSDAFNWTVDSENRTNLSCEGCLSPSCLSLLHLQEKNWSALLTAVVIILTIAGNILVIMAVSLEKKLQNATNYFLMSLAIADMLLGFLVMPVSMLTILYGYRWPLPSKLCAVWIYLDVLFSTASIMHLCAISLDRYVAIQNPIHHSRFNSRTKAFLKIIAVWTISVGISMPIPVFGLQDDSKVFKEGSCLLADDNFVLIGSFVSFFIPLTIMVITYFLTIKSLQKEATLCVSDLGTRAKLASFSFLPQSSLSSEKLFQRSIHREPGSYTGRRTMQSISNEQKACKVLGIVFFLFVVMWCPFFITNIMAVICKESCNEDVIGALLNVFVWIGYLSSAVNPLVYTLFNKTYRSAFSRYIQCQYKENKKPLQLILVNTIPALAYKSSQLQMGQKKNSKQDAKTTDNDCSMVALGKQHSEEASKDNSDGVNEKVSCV
Assay: R-SAT functional receptor assay
Format: cell-based
Settings: Table 6; read-out: 5HT2A pIC50 (converted)
Protocol: The functional receptor assay, Receptor Selection and Amplification Technology (R-SAT), was used (with minor modifications from that previously described U.S. Pat. No. 5,707,798) to screen compounds for efficacy at the 5-HT2A receptor. […] Media was then removed from the plates and marker gene activity was measured by the addition of the beta-galactosidase substrate ONPG (in PBS with 5% NP-40). […] All data were analyzed using the computer program XLFit (IDBSm). […]
Where a name gives a salt, the structure may show the parent alone.
endpoint: IC50 (nM)
Report the figure in nM without appending any unit label.

Answered examples (2):
CC(C)COc1ccc(CN2C(=O)OC3(CCNCC3)C2Cc2ccc(F)cc2)cc1 (stereo not shown) [Example 69NLS81, hydrochloride] : 5.01
CCN1CCC2(CC1)OC(=O)N(Cc1ccc(OCC(C)C)cc1)C2Cc1ccc(F)cc1 (stereo not shown) [Example 38-PH20, hydrochloride] : 0.501

Consider now this further compound.
// lookup IC50 for Cc1ccc(CC2N(Cc3ccc(OC(F)(F)F)cc3)C(=O)OC23CCN(C)CC3)cc1 (stereo not shown) [Example 69NLS21, hydrochloride] 0.794

====

In this section we review reported IC50 values for a set of compounds.
target: 5-HT2A receptor (Homo sapiens); construct: expressed in transfected cells; host or cells: NIH3T3 cells, pSI expression vector; assay: R-SAT functional receptor assay; format: cell-based; details: pIC50, Table 3
Where a name gives a salt, the structure may show the parent alone.
Report the figure in nM without appending any unit label.

Answered examples (3):
Cc1ccc(CN(C(=O)Cc2ccc(C(C)C)cc2)C2CCN(C)CC2)cc1 [Example 57MBT70-3D, hydrochloride] : 1.26
CCc1ccc(CN2CCC(N(Cc3ccc(C)cc3)C(=O)NCc3ccccc3)CC2)s1 [Example 26HCH66-05] : 7.94
COc1ccc(CC(=O)N(Cc2ccc(C)cc2)C2CCN(Cc3ccccc3O)CC2)cc1 [Example 26HCH79-10] : 15.8

// lookup IC50 for COc1ccc(CC(=O)N(Cc2ccc(C)cc2)C2CC3CCC(C2)N3C)cc1 (stereo not shown) [Example 47AKU-21] 12.6

====

Molecular target: 5-HT2A receptor (Homo sapiens)
Construct: expressed in transfected cells; host or cells: NIH3T3 cells, pSI expression vector
Assay: R-SAT functional receptor assay
Assay type: cell-based
Conditions: 120 h, read-out: Percent Efficacy
Method: The functional receptor assay, Receptor Selection and Amplification Technology (R-SAT), was used (with minor modifications from that previously described U.S. Pat. No. 5,707,798) to screen compounds for efficacy at the 5-HT2A receptor. […] Media was then removed from the plates and marker gene activity was measured by the addition of the beta-galactosidase substrate ONPG (in PBS with 5% NP-40). […] All data were analyzed using the computer program XLFit (IDBSm). […]
Counter-ions that a name gives are not always drawn.
endpoint: Emax
Give me the value, and tack the unit on after it.

Answered examples (5):
COc1ccc(CC(=O)N(Cc2ccc(C)cc2)C2CCN(Cc3csc(C)n3)CC2)cc1 [Example 63ELH1A] : 104%
CCc1ccc(CN2CCC(N(Cc3ccc(C)cc3)C(=O)NCc3ccccc3)CC2)s1 [Example 26HCH66-05] : 126%
Cc1ccc(CN(C(=O)Cc2ccc(OC(F)(F)F)cc2)C2CCN(C)CC2)cc1 [Example 57MBT70-4D, hydrochloride] : 98%
Cc1ccc(CC(=O)N(Cc2ccc(C)cc2)C2CCN(C)CC2)cc1 [Example 57MBT62B, hydrochloride] : 119%
COc1ccc(CC(=O)N(Cc2ccc(C)cc2)C2CC3CCC(C2)N3C)cc1 (stereo not shown) [Example 47AKU-21] : 117%

// lookup Emax for COc1ccc(CC(=O)N(Cc2ccc(C)cc2)C2CCN(Cc3ccccc3O)CC2)cc1 [Example 26HCH79-10] 102%

// lookup Emax for COc1ccc(CC(=O)N(Cc2ccc(C)cc2)C2CCN(CCCn3c(=O)[nH]c4ccccc43)CC2)cc1 [Example 50ELH89] 111%

====

target: 5-HT2A receptor (Homo sapiens, UniProt P28223); construct: expressed in transfected cells; host or cells: NIH3T3 cells, pSI expression vector; assay: R-SAT functional receptor assay; assay type: cell-based; conditions: 120 h, read-out: Percent Efficacy, compared to ritanserin
Counter-ions that a name gives are not always drawn.
endpoint: Emax (%)
Report the figure in % without appending any unit label.

Answered examples (6):
CCOc1ccc(CC(=O)N(Cc2ccc(C)cc2)C2CCN(C)CC2)cc1 [Example 58AKU-4] : 110
CCCCOc1ccc(CC(=O)N(Cc2ccc(C)cc2)C2CCN(C)CC2)cc1 [Example 58AKU-5] : 99
CCOc1ccc(CC(=O)N(Cc2ccc(F)cc2)C2CCN(C)CC2)cc1 [Example 63ELH21] : 100
Cc1ccc(CN(C(=O)Cc2ccc(C(C)C)cc2)C2CCN(C)CC2)cc1 [Example 57MBT70-3D, hydrochloride] : 87
COc1ccc(CC(=O)N(CCc2ccc(F)cc2)C2CCN(C)CC2)cc1 [Example 50ELH93A] : 106
Cc1ccc(CN(C(=O)Cc2ccc(Cl)cc2)C2CCN(C)CC2)cc1 [Example 47AKU-8] : 113

For the record Cc1ccc(CN(C(=O)Cc2ccc(OC(C)C)cc2)C2CCN(C)CC2)cc1 [Example 58AKU-6] , what value of Emax is listed for 5-HT2A receptor (Homo sapiens, UniProt P28223)? 101

For the record COc1ccc(CC(=O)N(Cc2ccc(C)cc2)C2CCN(C3CCC3)CC2)cc1 [Example 47AKU-20] , what value of Emax is listed for 5-HT2A receptor (Homo sapiens, UniProt P28223)? 120

For the record COc1ccc(CC(=O)N(CCCc2ccccc2)C2CCN(C)CC2)cc1 [Example 50ELH65] , what value of Emax is listed for 5-HT2A receptor (Homo sapiens, UniProt P28223)? 92

For the record COc1ccc(CC(=O)N(CCc2ccc(C)cc2)C2CCN(C)CC2)cc1 [Example 50ELH68] , what value of Emax is listed for 5-HT2A receptor (Homo sapiens, UniProt P28223)? 96

For the record COc1ccc(CC(=O)N(CCc2cccc(Cl)c2)C2CCN(C)CC2)cc1 [Example 50ELH93E] , what value of Emax is listed for 5-HT2A receptor (Homo sapiens, UniProt P28223)? 72

For the record COc1ccc(CCN(C(=O)Cc2ccc(OC)cc2)C2CCN(C)CC2)cc1 [Example 50ELH95B] , what value of Emax is listed for 5-HT2A receptor (Homo sapiens, UniProt P28223)? 119

====

target: 5-HT2A receptor (Homo sapiens); construct: expressed in transfected cells; host or cells: NIH3T3 cells, pSI expression vector; experiment: R-SAT functional receptor assay; assay type: cell-based; conditions: Table 5; read-out: 5HT2A pIC50 (converted)
In this section we review reported IC50 values for a set of compounds.
Report the figure in nM without appending any unit label.

Answered examples (2):
CC(C)COc1ccc(CC(=O)N(Cc2ccc(F)cc2)C2CCN(CCCN3C(=O)OC[C@@H]3C(C)C)CC2)cc1.O=C(O)C(=O)O [Example 117NLS01, oxalate] : 0.2
CC(C)COc1ccc(CC(=O)N(Cc2ccc(F)cc2)C2CCN(CCCN3CC(C)OC(C)C3)CC2)cc1 (stereo not drawn) [Example 103NLS69-A, dioxalate] : 2

Consider now this further compound.
// lookup IC50 for CC(C)COc1ccc(CNC(=O)N(Cc2ccc(F)cc2)C2CCN(CCC3OCCCO3)CC2)cc1 [Example 117NLS25] 1.26

====

molecular target: 5-HT2A receptor (Homo sapiens, UniProt P28223); construct: expressed in transfected cells; host or cells: NIH3T3 cells, pSI expression vector; experiment: R-SAT functional receptor assay; type: cell-based; conditions: 120 h, compared to ritanserin; read-out: 5HT2A % inhibition
Where a name gives a salt, the structure may show the parent alone.
In this section we review reported Emax values for a set of compounds.
Report the figure in % without appending any unit label.

CC(C)COc1ccc(CN2C(=O)OC3(CCN(CC4CC4)CC3)C2Cc2ccc(F)cc2)cc1 (centres unmarked) [Example 38-PH16-HCl] : 95

Consider now this further compound.
// lookup Emax for CC(C)COc1ccc(CN2C(=O)OC3(CCN(C)CC3)C2Cc2ccc(F)cc2)cc1 (single isomer, unassigned) [Example 78NLS62, hydrochloride] 89
